The measured values listed here are drawn from PubChem BioAssay (EPA / NIEHS).

# Read-out: Secreted IgG (sIgG), gene 3500
# ASSAY_TEXT: BSK_BT_sIgG: BioMAP Diversity Plus: BT Assay for Secreted IgG (sIgG) Biomarker Activity (AID 2284226)
# EXPERIMENTAL_SETUP: primary human B cells with PBMC
The source made the active and inactive calls. The calls were made as follows: active = hit-call score of the fitted dose curve at least 0.9, where 1 is the maximum; inactive = score below 0.9.
Outcome codes: active, inactive

INSERT INTO results (line_notation, qualitative_label) VALUES
  ('C[C@@H]1CCN(C(=O)[C@H](CCCN=C(N)N)NS(=O)(=O)c2cccc3c2NC[C@H](C)C3)[C@@H](C(=O)O)C1', 'inactive'),
  ('COc1ccc(CCN2CCC(Nc3nc4ccccc4n3Cc3ccc(F)cc3)CC2)cc1', 'active'),
  ('Cc1cc(CCC(=O)OCCOCCOCCOC(=O)CCc2cc(C)c(O)c(C(C)(C)C)c2)cc(C(C)(C)C)c1O', 'inactive'),
  ('CCCCN(CCCC)C(=O)N(CCCC)CCCC', 'active'),
  ('CC(=O)Nc1ccc(C(=O)CCl)cc1', 'active'),
  ('C=C(C)C(=O)OCCOCCOCCOCCOC(=O)C(=C)C', 'active'),
  ('c1ccc(Oc2ccccc2)cc1', 'inactive'),
  ('c1ccc(CCc2ccccc2)cc1', 'inactive'),
  ('O=C1OC2(c3ccccc31)c1ccc(O)c(Br)c1Oc1c2ccc(O)c1Br', 'inactive'),
  ('C=C(C)C(=O)OCCOCCOCCOC(=O)C(=C)C', 'inactive'),
  ('CC(C)(C)CC(C)(C)c1ccc(OCCOCC[N+](C)(C)Cc2ccccc2)cc1', 'active'),
  ('c1ccc2cc(Nc3ccc(Nc4ccc5ccccc5c4)cc3)ccc2c1', 'inactive');

----------
# SYSTEM_UNDER_TEST: Signal transducer and activator of transcription 3 (Homo sapiens) (UniProt P40763)
# Sequence (P40763 whole entry, looked up): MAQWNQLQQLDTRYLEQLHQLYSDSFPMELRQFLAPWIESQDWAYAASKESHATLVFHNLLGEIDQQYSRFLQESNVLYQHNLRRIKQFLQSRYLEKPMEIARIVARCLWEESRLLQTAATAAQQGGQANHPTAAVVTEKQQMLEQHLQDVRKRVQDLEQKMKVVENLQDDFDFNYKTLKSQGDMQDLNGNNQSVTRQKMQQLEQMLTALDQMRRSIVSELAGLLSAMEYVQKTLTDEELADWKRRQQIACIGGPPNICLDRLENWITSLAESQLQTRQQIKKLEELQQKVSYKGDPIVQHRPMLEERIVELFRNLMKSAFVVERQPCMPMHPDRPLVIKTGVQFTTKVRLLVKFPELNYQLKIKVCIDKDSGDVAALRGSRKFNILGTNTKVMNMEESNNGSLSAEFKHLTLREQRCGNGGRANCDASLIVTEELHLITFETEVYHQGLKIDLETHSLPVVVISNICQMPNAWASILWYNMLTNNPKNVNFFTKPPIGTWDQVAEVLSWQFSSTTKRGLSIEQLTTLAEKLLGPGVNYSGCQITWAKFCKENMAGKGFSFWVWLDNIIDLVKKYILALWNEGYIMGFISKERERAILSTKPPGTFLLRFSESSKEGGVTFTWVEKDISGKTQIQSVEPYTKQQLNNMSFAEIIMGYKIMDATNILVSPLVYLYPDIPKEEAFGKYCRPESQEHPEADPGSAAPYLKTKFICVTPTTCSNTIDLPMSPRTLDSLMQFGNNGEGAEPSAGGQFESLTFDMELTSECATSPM
# ASSAY_TEXT: ATG_STAT3_CIS: Attagene CIS-FACTORIAL HepG2 Assay for human Signal Transducer and Activator of Transcription 3 (STAT3) (AID 2282963)
# EXPERIMENTAL_SETUP: HepG2, Attagene cis-factorial STAT3 reporter transcription; actives raise or lower the signal
Calls of active or inactive are those of the source. The calls were made as follows: active = hit-call score of the fitted dose curve at least 0.9, where 1 is the maximum; inactive = score below 0.9.
Outcome codes: 1.0 for active, 0.0 for inactive

INSERT INTO results (compound, qualitative_label) VALUES
  ('COc1ccccc1[N+](=O)[O-]', 0.0),
  ('CCC1(c2ccccc2)C(=O)NCNC1=O', 0.0),
  ('C=C(C)CNCC', 0.0),
  ('C[C@H]1O[C@@H](O[C@H]2[C@@H](O)C[C@H](O[C@H]3[C@@H](O)C[C@H](O[C@H]4CC[C@@]5(C)[C@H](CC[C@@H]6[C@@H]5C[C@@H](O)[C@]5(C)[C@@H](C7=CC(=O)OC7)CC[C@]65O)C4)O[C@@H]3C)O[C@@H]2C)C[C@H](O)[C@@H]1O', 1.0),
  ('C=CCCCCCCCCCC', 0.0),
  ('CCCCOC(=O)CCCCCCCC(=O)OCCCC', 0.0),
  ('CCCCCCCCCCCC(=O)OC[C@@H](O)[C@H]1OC[C@H](O)[C@H]1O', 0.0),
  ('CC1C2CC(CC2C2CCCC(O)C2)C1(C)C (stereo unspecified)', 0.0),
  ('CCOC(=O)[C@@H](C)Oc1ccc(Oc2nc3ccc(Cl)cc3o2)cc1', 0.0),
  ('C=C(C)[C@H]1CC=C(C)C(=O)C1', 0.0),
  ('CCC1CCCCC1', 0.0);
